Tested on: Rattus norvegicus
protocol text: Antioxidant activity against CCl4-induced oxidative hepatic injury Wistar albino rat model assessed as effect on liver cytosolic GSH-Px activity per mg protein at 100 mg/kg, ip for 7 consecutive days prior to CCL4 challenge measured 24 hrs post CCl4 challenge (reference value: 0.27 +/-0.01 U/mg protein)
Type: functional
condition info: route intraperitoneal
Consider the following compounds and their measured Activity readings.
Respond numerically; units are U/mg and should not be typed.

Would you please look over these solved cases?
{"smiles record": "CC(=O)OC[C@H]1O[C@@H](NC(=S)N/N=C/c2ccc(Br)cc2)[C@H](OC(C)=O)[C@@H](OC(C)=O)[C@H]1OC(C)=O", "measured attribute": "Activity", "quantitative readout": 0.98}
{"smiles record": "CC(=O)OC[C@H]1O[C@@H](NC(=S)N/N=C/c2ccc(F)cc2)[C@H](OC(C)=O)[C@@H](OC(C)=O)[C@H]1OC(C)=O", "measured attribute": "Activity", "quantitative readout": 0.69}
{"smiles record": "CCOc1cc(/C=N/NC(=S)N[C@@H]2O[C@H](COC(C)=O)[C@H](OC(C)=O)[C@H](OC(C)=O)[C@H]2OC(C)=O)ccc1O", "measured attribute": "Activity", "quantitative readout": 0.69}
{"smiles record": "COc1cc(/C=N/NC(=S)N[C@@H]2O[C@H](COC(C)=O)[C@H](OC(C)=O)[C@H](OC(C)=O)[C@H]2OC(C)=O)ccc1O", "measured attribute": "Activity", "quantitative readout": 0.37}
{"smiles record": "CC(=O)OC[C@H]1O[C@@H](NC(=S)N/N=C/c2ccc(Cl)cc2)[C@H](OC(C)=O)[C@@H](OC(C)=O)[C@H]1OC(C)=O", "measured attribute": "Activity", "quantitative readout": 0.7}

Output Activity of `COc1cccc(/C=N/NC(=S)N[C@@H]2O[C@H](COC(C)=O)[C@H](OC(C)=O)[C@H](OC(C)=O)[C@H]2OC(C)=O)c1`
0.71

Identify measured Activity associated with `COc1ccc(/C=N/NC(=S)N[C@@H]2O[C@H](COC(C)=O)[C@H](OC(C)=O)[C@H](OC(C)=O)[C@H]2OC(C)=O)cc1O`
0.59

----------
Test system: Rattus norvegicus
protocol text: Antioxidant activity against CCl4-induced oxidative hepatic injury Wistar albino rat model assessed as effect on liver cytosolic SOD activity per mg protein at 100 mg/kg, ip for 7 consecutive days prior to CCL4 challenge measured 24 hrs post CCl4 challenge (reference value: 5.42 +/-0.29 U/mg protein)
Format: functional
condition info: route intraperitoneal
Quick rule for you: Activity under 9 U/mg gets TRUE, anything else gets FALSE.

Known results for molecules:
{"molecule": "CC(=O)OC[C@H]1O[C@@H](NC(=S)N/N=C/c2ccc(F)cc2)[C@H](OC(C)=O)[C@@H](OC(C)=O)[C@H]1OC(C)=O", "discrete label": "TRUE"}
{"molecule": "CC(=O)OC[C@H]1O[C@@H](NC(=S)N/N=C/c2ccc(Br)cc2)[C@H](OC(C)=O)[C@@H](OC(C)=O)[C@H]1OC(C)=O", "discrete label": "FALSE"}
{"molecule": "Oc1ccc(/C=C/c2cc(O)cc(O)c2)cc1 [RESVERATROL]", "discrete label": "TRUE"}

Activity strictly < 9 U/mg for this molecule? `COc1cc(/C=N/NC(=S)N[C@@H]2O[C@H](COC(C)=O)[C@H](OC(C)=O)[C@H](OC(C)=O)[C@H]2OC(C)=O)ccc1O`
TRUE

----------
Recorded Activity for the following compounds
Tested on: Radical scavenging activity
protocol text: Antioxidant activity assessed as DPPH radical scavenging activity at 12.5 uM after 30 mins by spectrophotometry
Assay type: functional
Report field: quantity (unit follows the number).

{"smiles record": "CC(=O)OC[C@H]1O[C@@H](NC(=S)N/N=C/c2ccc(Cl)cc2)[C@H](OC(C)=O)[C@@H](OC(C)=O)[C@H]1OC(C)=O", "Activity": "7.15%"}
{"smiles record": "CC(=O)OC[C@H]1O[C@@H](NC(=S)N/N=C/c2ccc(O)cc2)[C@H](OC(C)=O)[C@@H](OC(C)=O)[C@H]1OC(C)=O", "Activity": "11.4%"}
{"smiles record": "CCOc1cc(/C=N/NC(=S)N[C@@H]2O[C@H](COC(C)=O)[C@H](OC(C)=O)[C@H](OC(C)=O)[C@H]2OC(C)=O)ccc1O", "Activity": "14.2%"}

Give recorded Activity. `COc1ccc(/C=N/NC(=S)N[C@@H]2O[C@H](COC(C)=O)[C@H](OC(C)=O)[C@H](OC(C)=O)[C@H]2OC(C)=O)cc1O`
8.16%

Output Activity of `CC(=O)OC[C@H]1O[C@@H](NC(=S)N/N=C/c2ccc([N+](=O)[O-])cc2)[C@H](OC(C)=O)[C@@H](OC(C)=O)[C@H]1OC(C)=O`
6.11%

Output measured Activity for this item: `CC(=O)OC[C@H]1O[C@@H](NC(=S)N/N=C/c2ccc(C)cc2)[C@H](OC(C)=O)[C@@H](OC(C)=O)[C@H]1OC(C)=O`
7.21%

Recall and state the measured Activity for `CC(=O)OC[C@H]1O[C@@H](NC(=S)N/N=C/c2ccc(C(C)C)cc2)[C@H](OC(C)=O)[C@@H](OC(C)=O)[C@H]1OC(C)=O` .
2.17%

Tell me measured Activity for `COc1cccc(/C=N/NC(=S)N[C@@H]2O[C@H](COC(C)=O)[C@H](OC(C)=O)[C@H](OC(C)=O)[C@H]2OC(C)=O)c1` please.
7.34%

Tell us which Activity value is on record for `CC(=O)OC[C@H]1O[C@@H](NC(=S)N/N=C/c2cccc([N+](=O)[O-])c2)[C@H](OC(C)=O)[C@@H](OC(C)=O)[C@H]1OC(C)=O`
7.05%

Return Activity for the following compound: `COc1cc(/C=N/NC(=S)N[C@@H]2O[C@H](COC(C)=O)[C@H](OC(C)=O)[C@H](OC(C)=O)[C@H]2OC(C)=O)ccc1O`
9.45%

----------
Test system: Rattus norvegicus
protocol text: Antioxidant activity against CCl4-induced oxidative hepatic injury Wistar albino rat model assessed as effect on liver cytosolic SOD activity per mg protein at 100 mg/kg, ip for 7 consecutive days prior to CCL4 challenge measured 24 hrs post CCl4 challenge (reference value: 5.42 +/-0.29 U/mg protein)
Type: functional
condition info: route intraperitoneal
// label = class 1 if Activity is not less than 8 U/mg, otherwise class 0

{"smiles record": "COc1cccc(/C=N/NC(=S)N[C@@H]2O[C@H](COC(C)=O)[C@H](OC(C)=O)[C@H](OC(C)=O)[C@H]2OC(C)=O)c1", "discrete label": "class 1"}

In the following, a different molecule is considered.
Record `CC(=O)OC[C@H]1O[C@@H](NC(=S)N/N=C/c2ccc(N(C)C)cc2)[C@H](OC(C)=O)[C@@H](OC(C)=O)[C@H]1OC(C)=O` ; criterion: Activity no lower than 8 U/mg. Met?
class 0

----------
Tested on: Radical scavenging activity
protocol text: Antioxidant activity assessed as DPPH radical scavenging activity after 30 mins by spectrophotometry
Format: functional
measured attribute: pIC50
The value called pIC50 is obtained by taking minus log10 of the concentration in mol/L.

{"smiles record": "CC(=O)OC[C@H]1O[C@@H](NC(=S)N/N=C/c2ccc([N+](=O)[O-])cc2)[C@H](OC(C)=O)[C@@H](OC(C)=O)[C@H]1OC(C)=O", "test system": "Radical scavenging activity", "quantitative readout": 3.68}

Provide pIC50 value for the following compound: `CC(=O)OC[C@H]1O[C@@H](NC(=S)N/N=C/c2cccc([N+](=O)[O-])c2)[C@H](OC(C)=O)[C@@H](OC(C)=O)[C@H]1OC(C)=O`
3.55

----------
# Activity values compiled below
Test system: Rattus norvegicus
protocol text: Antioxidant activity against CCl4-induced oxidative hepatic injury Wistar albino rat model assessed as effect on liver cytosolic GSH-Px activity per mg protein at 100 mg/kg, ip for 7 consecutive days prior to CCL4 challenge measured 24 hrs post CCl4 challenge (reference value: 0.27 +/-0.01 U/mg protein)
Type: functional
condition info: route intraperitoneal

For the compound `Oc1ccc(/C=C/c2cc(O)cc(O)c2)cc1` , report Activity.
0.35 U/mg

Identify the reported Activity for the following entry. `CC(=O)OC[C@H]1O[C@@H](NC(=S)N/N=C/c2ccc(C(C)C)cc2)[C@H](OC(C)=O)[C@@H](OC(C)=O)[C@H]1OC(C)=O`
1.01 U/mg

Give the reported Activity for this compound. `CC(=O)OC[C@H]1O[C@@H](NC(=S)N/N=C/c2ccc([N+](=O)[O-])cc2)[C@H](OC(C)=O)[C@@H](OC(C)=O)[C@H]1OC(C)=O`
0.71 U/mg

Hello, please tell me recorded Activity for this one: `CC(=O)OC[C@H]1O[C@@H](NC(=S)N/N=C/c2ccc(C)cc2)[C@H](OC(C)=O)[C@@H](OC(C)=O)[C@H]1OC(C)=O`
0.72 U/mg

Report Activity for `CC(=O)OC[C@H]1O[C@@H](NC(=S)N/N=C/c2ccc(N(C)C)cc2)[C@H](OC(C)=O)[C@@H](OC(C)=O)[C@H]1OC(C)=O`
0.71 U/mg

Name the recorded Activity of the compound listed here: `CC(=O)OC[C@H]1O[C@@H](NC(=S)N/N=C/c2ccc(O)cc2)[C@H](OC(C)=O)[C@@H](OC(C)=O)[C@H]1OC(C)=O`
0.51 U/mg

Give the value of Activity reported for the following: `CC(=O)OC[C@H]1O[C@@H](NC(=S)N/N=C/c2cccc([N+](=O)[O-])c2)[C@H](OC(C)=O)[C@@H](OC(C)=O)[C@H]1OC(C)=O`
0.73 U/mg
